pIC50 values by entry
tested on: 931267-113-T-J1-PDC KRAS spheroid with HUVEC/MSC, viability; assay: Anticancer human tumor 931267-113-T-J1-PDC patient-derived colon adenocarcinoma cell line growth inhibition [KRAS2]; details: curve of first compound; second compound 1 µM;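 further: compound exposure lasted 7 days before the readout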
pIC50: −log10 of the molar value.

{"molecule": "CC1COCCN1c1cc(-c2ccnn2C)c2ccnc(-c3ccn[nH]3)c2n1 (stereo unspecified) + CC1OCC2(CCN(c3cnc(Sc4ccnc(N)c4Cl)c(N)n3)CC2)C1N", "relation": "=", "pIC50": 7.35}
{"molecule": "CN(C)C/C=C/C(=O)Nc1cc2c(Nc3ccc(F)c(Cl)c3)ncnc2cc1O[C@H]1CCOC1 + COc1cc2nc(C)nc(NC(C)c3cc(N)cc(C(F)(F)F)c3)c2cc1OC1CCOC1", "relation": "<", "pIC50": 7.00}
{"molecule": "CCN1CCN(Cc2ccc(Nc3ncc(F)c(-c4cc(F)c5nc(C)n(C(C)C)c5c4)n3)nc2)CC1 + CC1OCC2(CCN(c3cnc(Sc4ccnc(N)c4Cl)c(N)n3)CC2)C1N", "relation": "=", "pIC50": 7.39}
{"molecule": "CC(C)n1nc(-c2ccc3oc(N)nc3c2)c2c(N)ncnc21 + CC1OCC2(CCN(c3cnc(Sc4ccnc(N)c4Cl)c(N)n3)CC2)C1N", "relation": "=", "pIC50": 8.45}
{"molecule": "O=C(c1cc(Cc2n[nH]c(=O)c3ccccc23)ccc1F)N1CCN(C(=O)C2CC2)CC1 + C=CC(=O)N1CCN(c2nc(=O)n(-c3c(C)ccnc3C(C)C)c3nc(-c4c(O)cccc4F)c(F)cc23)C(C)C1", "relation": "<", "pIC50": 5.00}
{"molecule": "CC1OCC2(CCN(c3cnc(Sc4ccnc(N)c4Cl)c(N)n3)CC2)C1N (stereo unspecified) + C=CC(=O)N1CCN(c2nc(OCC3CCCN3C)nc3c2CCN(c2cccc4cccc(C)c24)C3)CC1CC#N", "relation": "<", "pIC50": 5.00}

Values were extracted from PubChem BioAssay AID1963863.
